- assay method text: Ratio of drug level in brain to plasma in Lewis rat at 1 mg/kg, iv and 1 mg/kg, po
- Format: ADME, organism-based
- assay setup: read-out: BPR

compound smiles: Cc1c(F)cc(C(=O)NC2CC2)cc1-c1ccc(C(=O)NCC(C)(C)C)cn1
Kp: 0.1

###

- assay method text: Half life in Lewis rat at 0.25 mg/kg, iv and 0.25 mg/kg, po
- Assay type: ADME, organism-based
- assay setup: in vivo
Reported half-life values are given for each entry in this list.
outcome measure: half-life

compound smiles: Cc1c(F)cc(C(=O)NC2CC2)cc1-c1ccc(C(=O)NCC(C)(C)C)cn1
outcome measure: half-life
result: 1.1 h
//
compound smiles: Cc1c(F)cc(C(=O)NC2CC2)cc1-c1ccc(C(=O)NCC(C)C)cn1
outcome measure: half-life
result: 1.1 h
